Test system: primary rat mixed cortical cells
Experiment: In vitro myelination assay (MBP positive myelin strands, fold myelin pixels above background)
Format: cell-based
Conditions: Rattus norvegicus, 1.0 μM compound, relative to baseline of no added compound; read-out: Fold myelin pixels above background
From the text: In Vitro Myelination Assay Compounds were screened for their ability to induce myelination using a primary rat mixed cortical cell culture assay, which contains neurons, oligodendrocyte precursor cells, oligodendrocytes, astrocytes and microglia. […] The myelin strands were quantitated using a custom created myelin detection software program. […]
ASSAY_METRIC: fold induction at 1 µM

1) Cc1cc(Nc2ncn(-c3ccccc3Cl)n2)cc(N2CCN(C3COC3)CC2)c1 : 1 to 10

What fold induction at 1 µM value was documented for this compound, "Cc1cc(Nc2ncn(-c3cc(F)cc(F)c3)n2)cc(N2CCN(CCCN(C)C)CC2)c1" ?
≤ 1

What fold induction at 1 µM value was documented for this compound, "Fc1cccc(-n2cnc(Nc3cc(C(F)(F)F)cc(N4CCN(C5COC5)CC4)n3)n2)c1" ?
10 to 100

---

Quick reference: fold induction at 1 µM of the listed items.
Tested on: primary rat mixed cortical cells
Assay: In vitro myelination assay (MBP positive myelin strands, fold myelin pixels above background)
Type: cell-based
Settings: Rattus norvegicus, 1.0 μM compound, relative to baseline of no added compound; read-out: Fold myelin pixels above background
Text: In Vitro Myelination Assay Compounds were screened for their ability to induce myelination using a primary rat mixed cortical cell culture assay, which contains neurons, oligodendrocyte precursor cells, oligodendrocytes, astrocytes and microglia. […] The myelin strands were quantitated using a custom created myelin detection software program. […]

1) Fc1cc(F)cc(-n2cnc(Nc3cc(C(F)(F)F)cc(N4CCOCC4)n3)n2)c1 : 1 to 10
2) Cc1cc(Nc2ncn(-c3cccc(F)c3)n2)cc(N2CCC(C3COC3)CC2)c1 : 100 to 1000
3) Cc1cc(Nc2ncn(-c3cc(F)cc(F)c3)n2)cc(N2CCN([C@@H]3CCOC3)CC2)c1 : 100 to 1000
4) Cc1cc(Nc2ncn(-c3ccccc3)n2)cc(N2C[C@@H]3C[C@H]2CN3C)c1 : 100 to 1000
5) CCOC(=O)C1CCN(c2cc(C)cc(Nc3ncn(-c4cc(F)cc(F)c4)n3)n2)CC1 : ≤ 1

What fold induction at 1 µM value was documented for this compound, "Cc1cc(Nc2ncn(-c3cccc(C(F)F)c3)n2)cc(N2CC(N3CCOCC3)C2)c1" ?
1 to 10

What fold induction at 1 µM value was documented for this compound, "FC(F)(F)c1cc(Nc2ncn(-c3ccccc3)n2)nc(N2CCN(C3COC3)CC2)c1" ?
100 to 1000

What fold induction at 1 µM value was documented for this compound, "Cc1cc(Nc2ncn(-c3ccccc3)n2)cc(N2CCN(CC(C)(C)O)CC2)c1" ?
1000 to 10000

---

System: primary rat mixed cortical cells
Assay: In vitro myelination assay (MBP positive myelin strands, fold myelin pixels above background)
Format: cell-based
Conditions: Rattus norvegicus, 10.0 μM compound; read-out: Fold myelin pixels above background relative to baseline of no added compound
Quick reference: fold induction at 10 µM of the listed items.

1) Cc1cc(Nc2ncn(-c3cc(F)cc(F)c3)n2)cc(N2CCC(N3CCOCC3C)CC2)c1 (centres unmarked) [Compound 988] : 1 to 10

What fold induction at 10 µM value was documented for this compound, Cc1cc(Nc2ncn(-c3cc(F)cc(F)c3)n2)c(F)c(NC2(C)COC2)c1 [Compound 869] ?
1 to 10

What fold induction at 10 µM value was documented for this compound, Cc1cc(Nc2ncn(-c3cc(F)cc(F)c3)n2)cc(N2CCN(CCO)CC2)c1 [Compound 1036] ?
≤ 1

---

System: primary rat mixed cortical cells
Assay: In vitro myelination assay (MBP positive myelin strands, fold myelin pixels above background)
Assay type: cell-based
Settings: Rattus norvegicus, 10.0 μM compound, relative to baseline of no added compound; read-out: Fold myelin pixels above background, 10.0 μM
Quick reference: fold induction at 10 µM of the listed items.

Before answering, review these 5 worked examples.
1. CN(C)C1CCN(c2cc(F)cc(Nc3ncn(-c4ccc(F)cc4F)n3)c2)C1 (centres unmarked) [Compound 347] : ≤ 1
2. Cc1cc(Nc2ncn(-c3ccccn3)n2)cc(N2CCN(C3COC3)CC2)c1 [Compound 104] : 100 to 1000
3. Fc1cc(F)cc(-n2cnc(Nc3cc(C4COC4)cc(N4CCN(C5COC5)CC4)c3)n2)c1 [Compound 313] : 100 to 1000
4. Cc1cc(Nc2ncn(-c3ccccc3)n2)cc(N2CCN(C)C(=O)C2)c1 [Compound 76] : 100 to 1000
5. Cc1cc(Nc2ncn(-c3cc(F)cc(F)c3)n2)cc(N2CCC(O)CC2)c1 [Compound 238] : 100 to 1000

What fold induction at 10 µM value was documented for this compound, Cc1cc(Nc2ncn(-c3cccc(C(F)(F)F)c3)n2)cc(N2CCCC2)c1 [Compound 190] ?
≤ 1

What fold induction at 10 µM value was documented for this compound, COC1CCCN(c2cc(C)cc(Nc3ncn(-c4cc(F)cc(F)c4)n3)c2)C1 (centres unmarked) [Compound 293] ?
10 to 100

What fold induction at 10 µM value was documented for this compound, Cc1cc(Nc2ncn(-c3ccccc3)n2)cc(N2C[C@H]3CCN(C)[C@H]3C2)c1 [Compound 369] ?
≤ 1

---

Quick reference: fold induction at 10 µM of the listed items.
System: primary rat mixed cortical cells
Experiment: In vitro myelination assay (MBP positive myelin strands, fold myelin pixels above background)
Format: cell-based
Settings: Rattus norvegicus, 10.0 μM compound, relative to baseline of no added compound; read-out: Fold myelin pixels above background, 10.0 μM

1) Cc1cc(Nc2ncn(-c3ccc(F)c(F)c3)n2)cc(N2CCOCC2)c1 : 100 to 1000
2) Cc1cc(Nc2ncn(-c3cc(F)cc(F)c3)n2)cc(C2(F)CCN(C)C2)c1 (centres unmarked) : 10 to 100

What fold induction at 10 µM value was documented for this compound, "Clc1cccc(-n2cnc(Nc3cc(C4CC4)cc(N4CCN(C5COC5)CC4)c3)n2)c1" ?
≤ 1

What fold induction at 10 µM value was documented for this compound, "Cc1cc(Nc2ncn(-c3cnccn3)n2)cc(N2CCN(C3COC3)CC2)c1" ?
100 to 1000

---

Tested on: primary rat mixed cortical cells
Assay: In vitro myelination assay (MBP positive myelin strands, fold myelin pixels above background)
Assay type: cell-based
Conditions: Rattus norvegicus, 10.0 μM compound, relative to baseline of no added compound; read-out: Fold myelin pixels above background, 10.0 μM
ASSAY_METRIC: fold induction at 10 µM

Before answering, review these 5 worked examples.
1. COCCC1CCN(c2cc(C)cc(Nc3ncn(-c4ccccc4)n3)c2)CC1 : 100 to 1000
2. Cc1cc(Nc2ncn(-c3cnccn3)n2)cc(N2CCN(C3CC3)CC2)c1 : 100 to 1000
3. Cc1cc(Nc2ncn(-c3ccncc3)n2)cc(N2CCN(C3COC3)CC2)c1 : 10 to 100
4. Fc1cc(Nc2ncn(-c3cncc(F)c3)n2)cc(N2CCOCC2)c1 : 100 to 1000
5. COc1cc(Nc2ncn(-c3ccc(F)c(F)c3)n2)cc(N2CCN(C3COC3)CC2)c1 : 10 to 100

What fold induction at 10 µM value was documented for this compound, "Cc1cc(Nc2ncn(-c3cc(F)nc(F)c3)n2)cc(N2CCN(C3COC3)CC2)c1" ?
10 to 100

What fold induction at 10 µM value was documented for this compound, "COCC1CCN(c2cc(C)cc(Nc3ncn(-c4ccccn4)n3)c2)CC1" ?
100 to 1000

What fold induction at 10 µM value was documented for this compound, "Cc1cc(Nc2ncn(-c3cc(F)cc(F)c3)n2)cc(C2CN(C3COC3)C2)c1" ?
100 to 1000

---

System: primary rat mixed cortical cells
Test: In vitro myelination assay (MBP positive myelin strands, fold myelin pixels above background)
Assay type: cell-based
Settings: Rattus norvegicus, 10.0 μM compound; read-out: Fold myelin pixels above background relative to baseline of no added compound
ASSAY_METRIC: fold induction at 10 µM

Before answering, review these 6 worked examples.
1) Cc1cc(Nc2ncn(-c3cc(F)cc(F)c3)n2)cc(NC2CCN(C3CCOCC3)CC2)c1 : ≤ 1
2) Cc1cc(Nc2ncn(-c3cc(F)cc(F)c3)n2)cc(N2CCN(C3CCCCC3O)CC2)c1 (stereo not shown) : ≤ 1
3) [2H]C([2H])([2H])C([2H])(N1CCN(c2cc(C)cc(Nc3ncn(-c4ccccc4)n3)c2)CC1)C([2H])([2H])[2H] : ≤ 1
4) N#Cc1cc(Nc2ncn(-c3cc(F)cc(F)c3)n2)cc(N2CCOCC2)c1 : 10 to 100
5) Cc1cc(NCC2COCCO2)cc(Nc2ncn(-c3cc(F)cc(F)c3)n2)c1 (stereo not shown) : ≤ 1
6) Cc1cc(Nc2ncn(-c3cc(F)cc(F)c3)n2)cc(N2CC(O)C(N3CCCC3)C2)c1 (stereo not shown) : ≤ 1

What fold induction at 10 µM value was documented for this compound, "N#Cc1cc(Nc2ncn(-c3cc(F)cc(F)c3)n2)nc(N2CCN(C3COC3)CC2)c1" ?
10 to 100

What fold induction at 10 µM value was documented for this compound, "Cc1cc(Nc2ncn(-c3cc(F)cc(F)c3)n2)cc(NC2CN(C3COC3)C2)c1" ?
≤ 1
